Numbers sourced from ChEMBL document CHEMBL1961873.

Quick reference for inhibition among some molecules
- tested.system: Serine/threonine-protein kinase MARK2 (Homo sapiens) (UniProt Q7KZI7);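 note: mean percent inhibition of PAR-1Balpha kinase activity, reported from the GSK PKIS screen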
- Sequence (Q7KZI7 whole entry): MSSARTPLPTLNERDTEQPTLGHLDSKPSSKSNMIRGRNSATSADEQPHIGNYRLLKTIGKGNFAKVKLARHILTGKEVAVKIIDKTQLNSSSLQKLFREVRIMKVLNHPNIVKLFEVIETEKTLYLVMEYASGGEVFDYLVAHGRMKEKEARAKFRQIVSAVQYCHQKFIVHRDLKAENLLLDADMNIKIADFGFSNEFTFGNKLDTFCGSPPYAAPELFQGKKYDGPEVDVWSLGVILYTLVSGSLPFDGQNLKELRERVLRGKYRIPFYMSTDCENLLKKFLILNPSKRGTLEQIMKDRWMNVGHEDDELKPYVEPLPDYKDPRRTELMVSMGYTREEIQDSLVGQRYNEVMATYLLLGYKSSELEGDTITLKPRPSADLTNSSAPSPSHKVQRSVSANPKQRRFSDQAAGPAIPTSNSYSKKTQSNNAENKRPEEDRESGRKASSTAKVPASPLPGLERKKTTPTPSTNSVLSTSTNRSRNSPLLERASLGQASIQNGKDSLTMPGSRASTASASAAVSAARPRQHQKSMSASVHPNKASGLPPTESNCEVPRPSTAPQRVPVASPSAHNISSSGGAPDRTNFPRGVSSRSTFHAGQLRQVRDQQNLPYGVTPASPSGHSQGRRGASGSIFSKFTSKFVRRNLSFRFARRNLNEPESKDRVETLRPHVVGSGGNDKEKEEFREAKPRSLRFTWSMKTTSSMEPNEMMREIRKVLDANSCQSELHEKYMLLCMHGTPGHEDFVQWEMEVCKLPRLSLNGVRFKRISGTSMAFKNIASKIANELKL
- test.context: at 0.1 µM
Give me the value, and tack the unit on after it.

Reference set (2 entries):
- CNC(=O)c1cncc(/C=C/c2c(C)cccc2C)c1: 0.03%
- Cc1ccc(NC(=O)c2ccoc2)cc1-c1ccc(C(=O)NCC2CC2)cc1: -0.93%

// query Write down inhibition measured for item `CCc1cccc(CC)c1/C=C/c1cncc(C(=O)NC)c1`
// result -0.01%

----------
Listing of entries alongside the reported inhibition.
- Test system: Epidermal growth factor receptor (Homo sapiens), P00533 [L858R,T790M]
- Sequence (P00533 whole entry T790M/L858R, looked up): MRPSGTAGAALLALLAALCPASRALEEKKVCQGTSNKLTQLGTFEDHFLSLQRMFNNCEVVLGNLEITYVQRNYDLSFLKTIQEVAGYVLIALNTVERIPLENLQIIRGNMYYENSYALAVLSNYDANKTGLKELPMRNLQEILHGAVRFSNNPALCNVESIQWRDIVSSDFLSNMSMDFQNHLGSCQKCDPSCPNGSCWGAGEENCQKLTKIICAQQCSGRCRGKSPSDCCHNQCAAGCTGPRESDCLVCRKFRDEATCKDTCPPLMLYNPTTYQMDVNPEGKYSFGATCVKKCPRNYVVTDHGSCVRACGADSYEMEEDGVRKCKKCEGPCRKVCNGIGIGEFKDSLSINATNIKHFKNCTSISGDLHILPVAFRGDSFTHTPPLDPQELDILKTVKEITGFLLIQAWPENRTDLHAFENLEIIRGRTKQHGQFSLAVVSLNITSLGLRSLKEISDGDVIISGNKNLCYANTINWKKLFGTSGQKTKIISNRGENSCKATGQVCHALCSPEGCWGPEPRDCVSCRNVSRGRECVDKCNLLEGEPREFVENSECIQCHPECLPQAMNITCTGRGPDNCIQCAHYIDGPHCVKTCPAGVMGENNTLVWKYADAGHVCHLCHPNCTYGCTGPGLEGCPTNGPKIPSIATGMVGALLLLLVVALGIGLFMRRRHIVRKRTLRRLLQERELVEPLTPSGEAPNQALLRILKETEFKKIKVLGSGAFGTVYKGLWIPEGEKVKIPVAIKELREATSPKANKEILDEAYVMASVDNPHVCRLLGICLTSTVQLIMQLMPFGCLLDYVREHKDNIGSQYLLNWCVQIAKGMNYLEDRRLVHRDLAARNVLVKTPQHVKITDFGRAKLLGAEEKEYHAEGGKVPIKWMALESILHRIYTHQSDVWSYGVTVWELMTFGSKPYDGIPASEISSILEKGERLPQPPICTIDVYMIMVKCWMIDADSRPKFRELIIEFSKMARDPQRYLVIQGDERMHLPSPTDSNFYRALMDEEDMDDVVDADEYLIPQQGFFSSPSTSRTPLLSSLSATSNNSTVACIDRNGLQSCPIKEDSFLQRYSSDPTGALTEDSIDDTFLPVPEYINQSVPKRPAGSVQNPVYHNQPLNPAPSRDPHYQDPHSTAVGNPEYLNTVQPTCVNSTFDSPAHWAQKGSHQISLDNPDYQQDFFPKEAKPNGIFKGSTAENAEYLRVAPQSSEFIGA
- test.context: at 0.1 µM
Hi! Could you send only the number? It should be in %, unit omitted.

• O=C1Nc2ccc(I)cc2C1=Cc1cc(Br)c(O)c(Br)c1 = -1.49
• COc1ccc2cc(-c3c(-c4ccncc4)nc(-c4ccc(S(C)(=O)=O)cc4C)n3C)ccc2c1 = 1.66
• NC(=O)c1ccc(Oc2nccc(-c3c(-c4ccc(F)cc4)ncn3C3CCNCC3)n2)cc1 = 3.71
• CS(=O)(=O)CCNCc1ccc(-c2ccc3ncnc(Nc4ccc(OCc5ccccc5)c(Br)c4)c3c2)o1 = 1.22
• Nc1nccc(-c2c(-c3ccc(F)cc3)ncn2C2CCC(O)CC2)n1 (configuration not stated) = 1.94

// query Query inhibition for `CCc1cccc(CC)c1/C=C/c1cncc(C(=O)NC)c1`
// result 1.59

// query For the compound `COc1cc2ncn(-c3cc(OCc4cccs4)c(C(N)=O)s3)c2cc1OC` , give its measured inhibition value.
// result -0.25

// query Specify reported inhibition for the compound shown: `COc1cccc(/C=N/Nc2ncnc3c2cnn3-c2cccc(OC)c2)c1`
// result 2.14

// query Consider the compound `CN(C)CCOc1ccc(-c2cc(-c3ccc4c(c3)CCC4=NO)c(-c3ccncc3)o2)cc1` and give its recorded inhibition.
// result -2.24

// query Could you please provide reported inhibition for `NC(=O)c1cc(-c2ccc(F)cc2)cc(-c2ccncc2)c1N` ? Thanks!
// result 0.39

// query Output inhibition of `CCc1ccc(Oc2nccc(-c3c(-c4ccc(F)cc4)ncn3C3CCNCC3)n2)cc1`
// result 0.15

----------
- tested.system: Cyclin-dependent kinase 4 (Homo sapiens);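 note: enzyme tested as the CDK4–cyclin D complex, with the value reported as mean percent inhibition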
- test.context: at 1 µM
inhibition listing for selected compounds.
Output spec: scalar in %, unitless text.

// query Entry `CN(c1ccc(NC(=O)Nc2c(Cl)cccc2Cl)cc1)c1ccnc(Nc2cccc(CS(C)(=O)=O)c2)n1` needs its inhibition filled in; supply it.
// result -0.25

// query Please report the measured inhibition for `O=C1NC(=O)C(c2cccc(Cl)c2)=C1Nc1ccc(Cl)c(C(=O)O)c1`
// result 1.74

----------
- tested.system: Tyrosine-protein kinase JAK1 (Homo sapiens) (UniProt P23458)
- Sequence (P23458 whole entry): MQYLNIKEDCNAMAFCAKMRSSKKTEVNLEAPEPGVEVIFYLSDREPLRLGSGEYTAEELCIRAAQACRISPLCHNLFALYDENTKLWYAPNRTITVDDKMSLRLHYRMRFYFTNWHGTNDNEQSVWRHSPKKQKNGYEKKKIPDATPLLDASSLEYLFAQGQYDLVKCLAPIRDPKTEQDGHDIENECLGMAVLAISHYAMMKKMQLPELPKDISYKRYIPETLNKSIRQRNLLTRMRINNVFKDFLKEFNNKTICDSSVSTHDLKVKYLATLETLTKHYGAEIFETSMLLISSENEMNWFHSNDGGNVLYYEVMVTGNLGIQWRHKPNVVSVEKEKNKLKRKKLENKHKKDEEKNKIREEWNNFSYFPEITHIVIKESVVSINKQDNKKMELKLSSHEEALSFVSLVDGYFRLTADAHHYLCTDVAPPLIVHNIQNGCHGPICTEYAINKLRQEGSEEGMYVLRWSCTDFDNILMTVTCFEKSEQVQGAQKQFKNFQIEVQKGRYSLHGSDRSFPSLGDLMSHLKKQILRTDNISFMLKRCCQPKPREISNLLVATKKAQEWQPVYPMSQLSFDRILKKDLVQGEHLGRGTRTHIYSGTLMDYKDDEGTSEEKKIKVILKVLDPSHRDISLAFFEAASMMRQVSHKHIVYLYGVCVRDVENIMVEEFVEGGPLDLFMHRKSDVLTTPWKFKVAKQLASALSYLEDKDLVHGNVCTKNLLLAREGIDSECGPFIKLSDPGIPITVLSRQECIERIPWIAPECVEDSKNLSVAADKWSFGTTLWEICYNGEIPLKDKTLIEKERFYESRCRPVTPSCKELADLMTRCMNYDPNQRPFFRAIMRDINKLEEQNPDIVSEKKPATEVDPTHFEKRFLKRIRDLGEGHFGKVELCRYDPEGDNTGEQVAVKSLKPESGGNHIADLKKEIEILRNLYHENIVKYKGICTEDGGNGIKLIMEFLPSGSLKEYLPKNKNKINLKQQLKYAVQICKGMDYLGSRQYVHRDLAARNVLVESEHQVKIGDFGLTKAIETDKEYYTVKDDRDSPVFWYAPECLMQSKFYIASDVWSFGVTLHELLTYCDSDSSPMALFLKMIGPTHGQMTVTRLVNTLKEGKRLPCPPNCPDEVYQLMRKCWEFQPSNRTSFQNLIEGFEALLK
- test.context: at 1 µM
readout.label: inhibition (%)
Numeric answer only, unit % assumed.

# example entries with known answers
• COc1cc2ncn(-c3cc(OCCc4ccccc4)c(C(N)=O)s3)c2cc1OC = -5.52
• NS(=O)(=O)c1ccc(Nc2cc(-c3ccc(O)c(F)c3)n[nH]2)cc1 = 6.94
• COc1cccc(/C=N/Nc2ncnc3c2cnn3-c2cccc(OC)c2)c1 = 4.23
• COc1cc(Nc2ncc3c(C)nc(-c4cccc(C(F)(F)F)c4)n3n2)cc(OC)c1OC = 8.95
• CCC(=O)Nc1ccc(C)c(-c2ccc(C(=O)NCC3CC3)cc2)c1 = 4.69
• NC(=O)c1cc(-c2ccc(F)cc2)cc(-c2ccncc2)c1N = 12.2

// query Find inhibition for `CCS(=O)(=O)c1ccc(OC)c(Nc2ncc(-c3ccccc3Cl)o2)c1` on Tyrosine-protein kinase JAK1 (Homo sapiens) (UniProt P23458) and write it down.
// result -2.96

// query Recall the reported inhibition of Nc1nccc(-c2c(-c3ccc(F)cc3)ncn2C2CCC(O)CC2)n1 (centres undefined) when tested on Tyrosine-protein kinase JAK1 (Homo sapiens) (UniProt P23458).
// result -2.41

// query GET inhibition where system = Tyrosine-protein kinase JAK1 (Homo sapiens) (UniProt P23458) and item = `O=C(Nc1n[nH]c2nc(-c3ccc(O)cc3)c(Br)cc12)C1CC1`;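 note: each value is a mean inhibition of JAK1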
// result 55
